System: ACHN renal
Test: NCI tumour cell line growth inhibition, 48 h
reported.property: GI50

molecule | GI50
CC1(C)CC2CC(C)(CN2c2ncnc3ccc(Br)cc23)C1 (configuration not stated) | 14100 nM

// moving on: another record for GI50
Data request: Give the reported GI50 for this molecule. "CC[C@@]1(OC(=O)CN)C(=O)OCc2c1cc1n(c2=O)Cc2cc3c(N)c4c(cc3nc2-1)OCO4"
Data returned: < 0.1 nM

----------
System: SNB-75 CNS
Assay: NCI tumour cell line growth inhibition, 48 h; in the data active means GI50 below about 0.43 µM; inactive means the rest
Outcome field: choose from Yes = active, No = inactive

compound | discrete.label
CCCCCc1c(C)[nH]c(/C=c2\[nH]/c(=C3/C=c4ccccc4=N3)cc2OC)c1C | Yes
CCNCCNc1cc(-c2cccc(C(F)(F)F)c2)c(C#N)c2nc3ccccc3n12 | No
Cc1cc2c(C(C)C)c(O)c(O)c(C=O)c2c(O)c1-c1c(C)cc2c(C(C)C)c(O)c(O)c(C=O)c2c1O (tested in a mixture with another compound) | No
COc1ccc(-n2sc(=O)n(Cc3ccc(COC(=O)C(C)c4ccc(CC(C)C)cc4)cc3)c2=O)cc1 (centres undefined) | No
C=C1C(=O)OC2CC3(C)OC3C3OC3C3=CC(OC3=O)C12 (centres undefined) | No

Data request: Just curious, what result did "CN1CCN(c2ccc3nc4c(nc3c2C(F)(F)F)C(=O)c2ncccc2C4=O)CC1" get here?
Data returned: No

Data request: Just curious, what result did "N#CC[C@H](C1CCCC1)n1cc(-c2ncnc3[nH]ccc23)cn1" get here?
Data returned: No

Data request: Just curious, what result did CC(=O)OCC(=O)C1(O)C(C)CC2C3C=C(C)C4=Cc5c(cnn5-c5ccccc5)CC4(C)C3C(O)CC21C (centres undefined) get here?
Data returned: No
